# study system: T1, human alpha2-Antiplasmin (human, UniProt P08697 40-491)
# T1 construct: Bought (antibodies online, ABIN2544306); also called human A2AP; a2AP
# T1 sequence: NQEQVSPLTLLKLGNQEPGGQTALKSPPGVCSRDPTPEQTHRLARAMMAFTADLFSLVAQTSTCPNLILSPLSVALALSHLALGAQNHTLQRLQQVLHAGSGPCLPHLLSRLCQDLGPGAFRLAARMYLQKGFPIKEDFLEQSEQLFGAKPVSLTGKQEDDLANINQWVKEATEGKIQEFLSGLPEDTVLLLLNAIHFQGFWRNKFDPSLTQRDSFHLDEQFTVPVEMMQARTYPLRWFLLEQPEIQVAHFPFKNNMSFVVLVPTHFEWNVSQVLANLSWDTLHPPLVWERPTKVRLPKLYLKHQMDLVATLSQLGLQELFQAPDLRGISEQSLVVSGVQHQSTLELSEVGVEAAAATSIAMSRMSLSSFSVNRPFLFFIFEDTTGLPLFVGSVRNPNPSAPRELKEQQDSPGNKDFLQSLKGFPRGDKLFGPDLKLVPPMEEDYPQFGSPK
# test: SPR Biacore T200, antibody captured on protein G chip, A2AP as analyte, 25 C
endpoint name: pKd
Keep in mind that pKd stands for -log10 of concentration in molar terms.

Consider the worked cases shown below.
TPP-17048 hIgG1 (antibody, V domains shown, Germline variant of TPP-14308) VH: EVQLLESGGGLVQPGGSLRLSCAASGFTFSDYAMSWVRQAPGKGLEWVSAIGTGGSTYYADSVKGRFTISRDNSKNTLYLQMNSLRAEDTAVYYCAREGYDSSGYYHLDYWGQGTLVTVSS VL: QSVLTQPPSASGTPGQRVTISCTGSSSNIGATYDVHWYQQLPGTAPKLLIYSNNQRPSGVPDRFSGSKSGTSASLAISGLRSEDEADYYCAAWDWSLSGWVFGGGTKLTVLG ... 8.10
TPP-17053 hIgG1 (antibody, V domains shown, Germline variant of TPP-14308) VH: EVQLLESGGGLVQPGGSLRLSCAASGFTFDDYAMSWVRQAPGKGLEWVSAIGSGGSTYYADSVKGRFTISRDNSKNTLYLQMNSLRAEDTAVYYCAREGYDSSGYYHLDYWGQGTLVTVSS VL: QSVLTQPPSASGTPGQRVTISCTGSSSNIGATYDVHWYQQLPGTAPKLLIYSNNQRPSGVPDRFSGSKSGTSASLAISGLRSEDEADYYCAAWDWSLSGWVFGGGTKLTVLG ... 7.96
TPP-14308 hIgG1 (antibody, V domains shown, starting point of the germlining) VH: EVQLLESGGGLVQPGGSLRLSCAASGFTFDDYAMSWVRQAPGKGLEWVSAIGTGGGTYYADSVKGRFTISRDNSKNTLYLQMNSLRAEDTAVYYCAREGYDSSGYYHLDYWGQGTLVTVSS VL: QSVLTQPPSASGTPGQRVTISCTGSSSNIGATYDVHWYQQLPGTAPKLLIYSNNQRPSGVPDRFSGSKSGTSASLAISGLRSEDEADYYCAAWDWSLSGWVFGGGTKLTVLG ... 8.41

Prompt: Need pKd of TPP-17041 hIgG1 (antibody, V domains shown, Germline variant of TPP-14308) VH: EVQLLESGGGLVQPGGSLRLSCAASGFTFSDYAMSWVRQAPGKGLEWVSAIGTGGGTYYADSVKGRFTISRDNSKNTLYLQMNSLRAEDTAVYYCAREGYDSSGYYHLDYWGQGTLVTVSS VL: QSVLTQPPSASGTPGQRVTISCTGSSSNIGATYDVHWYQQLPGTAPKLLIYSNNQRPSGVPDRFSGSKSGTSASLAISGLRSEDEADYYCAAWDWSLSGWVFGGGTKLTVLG , thanks.
Completion: 7.96

Prompt: Need pKd of TPP-17045 hIgG1 (antibody, V domains shown, Germline variant of TPP-14308) VH: EVQLLESGGGLVQPGGSLRLSCAASGFTFDDYAMSWVRQAPGKGLEWVSAIGTGGGTYYADSVKGRFTISRDNSKNTLYLQMNSLRAEDTAVYYCAKEGYDSSGYYHLDYWGQGTLVTVSS VL: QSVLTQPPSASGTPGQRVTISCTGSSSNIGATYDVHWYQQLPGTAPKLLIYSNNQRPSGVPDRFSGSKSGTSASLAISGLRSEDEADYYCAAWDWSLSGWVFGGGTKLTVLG , thanks.
Completion: 7.85

Prompt: Need pKd of TPP-17051 hIgG1 (antibody, V domains shown, Germline variant of TPP-14308) VH: EVQLLESGGGLVQPGGSLRLSCAASGFTFDSYAMSWVRQAPGKGLEWVSAIGTGGSTYYADSVKGRFTISRDNSKNTLYLQMNSLRAEDTAVYYCAREGYDSSGYYHLDYWGQGTLVTVSS VL: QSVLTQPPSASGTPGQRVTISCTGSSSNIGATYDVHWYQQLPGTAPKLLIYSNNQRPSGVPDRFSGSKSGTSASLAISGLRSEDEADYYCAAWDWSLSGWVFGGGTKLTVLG , thanks.
Completion: 7.74
